# experimentSummary: Stability of ITZA/POSA in solvent vehicles (HPLC)
# Assay type: physicochemical
# details: H3G, day 1
valueKind: stability of ITZA

Measured stability of ITZA, CCC(C)n1ncn(-c2ccc(N3CCN(c4ccc(OCC5COC(Cn6cncn6)(c6ccc(Cl)cc6Cl)O5)cc4)CC3)cc2)c1=O (stereo not shown) : 103%

====

# experimentSummary: in vivo
# details: both, Swiss Webster, mouse, plasma, iv, 5 mg/kg
valueKind: half-life

molecule | experimentalResult
CCC(C)n1ncn(-c2ccc(N3CCN(c4ccc(OCC5COC(Cn6cncn6)(c6ccc(Cl)cc6Cl)O5)cc4)CC3)cc2)c1=O (centres unmarked) | ~0.5 h

We now examine a further molecule.
Measured half-life, CC[C@@H]([C@H](C)O)n1ncn(-c2ccc(N3CCN(c4ccc(OC[C@@H]5CO[C@@](Cn6cncn6)(c6ccc(F)cc6F)C5)cc4)CC3)cc2)c1=O : 6 to 7 h

====

# experimentSummary: Stability of ITZA/POSA in solvent vehicles (HPLC)
# Format: physicochemical
# details: H3G/5% Dex., day 2
valueKind: stability of ITZA
Could you write the number and then its unit?

Measured stability of ITZA, CCC(C)n1ncn(-c2ccc(N3CCN(c4ccc(OCC5COC(Cn6cncn6)(c6ccc(Cl)cc6Cl)O5)cc4)CC3)cc2)c1=O (stereo not shown) : 109%

====

# experimentSummary: Stability of ITZA/POSA in solvent vehicles (HPLC)
# Type: physicochemical
# details: H3G/5% Dex., day 5
valueKind: stability of ITZA (%)
Respond with the bare value in %.

Measured stability of ITZA, CCC(C)n1ncn(-c2ccc(N3CCN(c4ccc(OCC5COC(Cn6cncn6)(c6ccc(Cl)cc6Cl)O5)cc4)CC3)cc2)c1=O (stereo not shown) : 42

====

# experimentSummary: Maximum solubility of ITZA and azole analogues in solvents (HPLC)
# Format: physicochemical
# details: solvent H3D (no benzyl alcohol), organic solvent or mixture, thermodynamic from solid, solvent H3D (no benzyl alcohol); read-out: Azole solubility, Average mg/mL
Listed next: entries and their corresponding solubility at 30 min.
Respond with the bare value in mg/mL.

compound | solubility at 30 min, mg/mL
CC[C@@H]([C@H](C)O)n1ncn(-c2ccc(N3CCN(c4ccc(OC[C@@H]5CO[C@@](Cn6cncn6)(c6ccc(F)cc6F)C5)cc4)CC3)cc2)c1=O | 35.3

We now examine a further compound.
Measured solubility at 30 min, CCC(C)n1ncn(-c2ccc(N3CCN(c4ccc(OCC5COC(Cn6cncn6)(c6ccc(Cl)cc6Cl)O5)cc4)CC3)cc2)c1=O (centres unmarked) : 19

====

# experimentSummary: Maximum solubility of ITZA and azole analogues in solvents (HPLC)
# Assay type: physicochemical
# details: PEG 300, organic solvent or mixture, thermodynamic from solid, in PEG 300; read-out: Maximum solubility
valueKind: solubility (µg/mL)
Respond with the bare value in µg/mL.

Measured solubility, CCC(C)n1ncn(-c2ccc(N3CCN(c4ccc(OCC5COC(Cn6cncn6)(c6ccc(Cl)cc6Cl)O5)cc4)CC3)cc2)c1=O (stereo not shown) : 1810

====

# experimentSummary: Stability of ITZA/POSA in solvent vehicles (HPLC)
# Assay type: physicochemical
# details: H3G/5% Dex., day 1
valueKind: stability of ITZA
Could you write the number and then its unit?

Measured stability of ITZA, CCC(C)n1ncn(-c2ccc(N3CCN(c4ccc(OCC5COC(Cn6cncn6)(c6ccc(Cl)cc6Cl)O5)cc4)CC3)cc2)c1=O (stereo not shown) : 102%

====

# experimentSummary: Stability of ITZA/POSA in solvent vehicles (HPLC)
# Assay type: physicochemical
# details: H3D/5% dex., day 1
valueKind: stability of ITZA (%)
Respond with the bare value in %.

Measured stability of ITZA, CCC(C)n1ncn(-c2ccc(N3CCN(c4ccc(OCC5COC(Cn6cncn6)(c6ccc(Cl)cc6Cl)O5)cc4)CC3)cc2)c1=O (stereo not shown) : 100

====

# experimentSummary: Stability of ITZA/POSA in solvent vehicles (HPLC)
# Assay type: physicochemical
# details: H3D, day 0
valueKind: stability of ITZA (%)
Respond with the bare value in %.

Measured stability of ITZA, CCC(C)n1ncn(-c2ccc(N3CCN(c4ccc(OCC5COC(Cn6cncn6)(c6ccc(Cl)cc6Cl)O5)cc4)CC3)cc2)c1=O (stereo not shown) : 100
